Biological target: PDGFRα (Homo sapiens, UniProt P16234)
Construct: purchased Millipore 14-467 (lot 26321_ACTI)
Sequence (P16234 24-1089): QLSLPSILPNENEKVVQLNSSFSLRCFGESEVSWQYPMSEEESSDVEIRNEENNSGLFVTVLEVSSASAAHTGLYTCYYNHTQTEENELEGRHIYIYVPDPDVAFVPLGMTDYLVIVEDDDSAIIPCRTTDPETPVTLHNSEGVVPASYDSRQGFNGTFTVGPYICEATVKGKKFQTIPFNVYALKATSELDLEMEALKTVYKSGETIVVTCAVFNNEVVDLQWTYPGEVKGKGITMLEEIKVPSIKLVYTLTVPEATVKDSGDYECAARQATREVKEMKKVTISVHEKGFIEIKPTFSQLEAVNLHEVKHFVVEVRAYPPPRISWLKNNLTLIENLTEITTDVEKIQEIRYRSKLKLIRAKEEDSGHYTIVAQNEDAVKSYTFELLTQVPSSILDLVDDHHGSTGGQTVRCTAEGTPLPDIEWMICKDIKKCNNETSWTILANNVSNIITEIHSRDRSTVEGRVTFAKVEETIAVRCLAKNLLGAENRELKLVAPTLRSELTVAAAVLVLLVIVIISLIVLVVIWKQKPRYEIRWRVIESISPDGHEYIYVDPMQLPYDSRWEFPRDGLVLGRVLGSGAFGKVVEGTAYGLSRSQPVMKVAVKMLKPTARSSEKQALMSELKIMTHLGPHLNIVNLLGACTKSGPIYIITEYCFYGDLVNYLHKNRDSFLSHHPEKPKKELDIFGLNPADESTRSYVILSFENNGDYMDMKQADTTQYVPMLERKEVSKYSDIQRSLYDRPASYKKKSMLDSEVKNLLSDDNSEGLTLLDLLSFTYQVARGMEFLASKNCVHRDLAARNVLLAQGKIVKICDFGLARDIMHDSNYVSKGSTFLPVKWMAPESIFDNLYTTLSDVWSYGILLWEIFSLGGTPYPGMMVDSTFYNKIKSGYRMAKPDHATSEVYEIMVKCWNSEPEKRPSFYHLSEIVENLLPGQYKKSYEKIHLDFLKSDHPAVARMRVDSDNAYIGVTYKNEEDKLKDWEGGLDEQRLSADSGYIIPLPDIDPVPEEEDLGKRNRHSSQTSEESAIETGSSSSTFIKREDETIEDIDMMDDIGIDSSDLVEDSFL
Assay: Caliper biochemical assay, PDGFRα
Details: Table 6
pIC50: −log10 of the molar value.
Readout: pIC50

[[record]]
compound = "Cc1ccc(-c2noc(C34CC(F)(C3)C4)n2)cc1NC(=O)c1cnc2ccccn12"
assayed_target = "PDGFRα (Homo sapiens, UniProt P16234)"
readout = "pIC50"
result = "5.30 to 6.30"

[[record]]
compound = "Cc1ccc(-c2noc([C@H]3C[C@@H]3F)n2)cc1NC(=O)c1cnc2cc(N3CCC3)ccn12"
assayed_target = "PDGFRα (Homo sapiens, UniProt P16234)"
readout = "pIC50"
result = "≥ 7.30"

[[record]]
compound = "COC(=O)N1CC(c2nc(-c3ccc(C)c(NC(=O)c4cnc5cc(O[C@@H](C)CO)ccn45)c3)no2)C1 (single isomer, unassigned)"
assayed_target = "PDGFRα (Homo sapiens, UniProt P16234)"
readout = "pIC50"
result = "6.30 to 7.30"

[[record]]
compound = "Cc1cc(C)c(-c2noc(C3CC3(F)F)n2)cc1NC(=O)c1cnc2ccccn12 (racemic)"
assayed_target = "PDGFRα (Homo sapiens, UniProt P16234)"
readout = "pIC50"
result = "5.30 to 6.30"

[[record]]
compound = "Cc1ccc(-c2noc(C3CCC(F)C3)n2)cc1NC(=O)c1cnc2ccccn12 (racemic) [Compound I-319]"
assayed_target = "PDGFRα (Homo sapiens, UniProt P16234)"
readout = "pIC50"
result = "6.30 to 7.30"

[[record]]
compound = "Cc1ccc(-c2noc(C3COC3)n2)cc1NC(=O)c1cnc2ccccn12"
assayed_target = "PDGFRα (Homo sapiens, UniProt P16234)"
readout = "pIC50"
result = "5.30 to 6.30"

[[record]]
compound = "CCCNc1ccn2c(C(=O)Nc3cc(-c4noc([C@H]5C[C@@H]5F)n4)ccc3C)cnc2c1"
assayed_target = "PDGFRα (Homo sapiens, UniProt P16234)"
readout = "pIC50"
result = "≥ 7.30"


###

The following compounds are shown together with reported Plasma concentration values.
Assay: Three time point assay for plasma, brain and testes distribution after oral dosing
Assay type: in vivo, rat
Conditions: rat, oral dosing, time point 7 h
Procedure: Exemplary compounds were tested for distribution in plasma, brain and testes tissue following oral dosing of the compounds in rats. Procedures and results are described below. […] For PO dosing, the dose formulation was administered via oral gavage following facility SOPs. The dose volume was determined by the animals' body weight collected on the morning of dosing day. […]
Readout: Plasma concentration (ng/mL)

[[record]]
compound = "Cc1ccc(-c2noc(CC(O)C(F)F)n2)cc1NC(=O)c1cnc2ccccn12 (stereo not shown)"
unit_spec = "ng/mL"
recorded_number = 693

[[record]]
compound = "Cc1ccc(-c2noc([C@H]3C[C@@H]3F)n2)cc1NC(=O)c1cnc2cc(OC(F)(F)F)ccn12"
unit_spec = "ng/mL"
recorded_number = 4970

[[record]]
compound = "COc1ccn2c(C(=O)Nc3cc(-c4noc(CC(O)C(F)F)n4)ccc3C)cnc2c1 (single isomer, unassigned)"
unit_spec = "ng/mL"
recorded_number = 764

[[record]]
compound = "Cc1ccc(-c2noc([C@H]3C[C@@H]3F)n2)cc1NC(=O)c1cnc2cc(OC(C)C)ccn12"
unit_spec = "ng/mL"
recorded_number = 9200

